- experimental_details: Cmax in Beagle dog plasma at 2 mg/kg, administered through oral gavage after 0.25 to 48 hrs by LC/MS/MS analysis
- Assay type: ADME, organism-based, Canis lupus familiaris
- Design: dose 2 mg/kg, route oral
value_type: Cmax (nM)

• Cc1c(-c2ccc(C(N)=O)c3[nH]c4cc(C(C)(C)O)ccc4c23)cccc1-n1cnc2ccccc2c1=O = 1200

---

- experimental_details: Tmax in cynomolgus monkey plasma at 2 mg/kg, administered through oral gavage after 0.25 to 48 hrs by LC/MS/MS analysis
- Assay type: ADME, organism-based, Macaca fascicularis
value_type: Tmax

- Cc1c(-c2ccc(C(N)=O)c3[nH]c4cc(C(C)(C)O)ccc4c23)cccc1-n1cnc2ccccc2c1=O: 2.7 h

---

- experimental_details: Tmax in Beagle dog plasma at 2 mg/kg, administered through oral gavage after 0.25 to 48 hrs by LC/MS/MS analysis
- Format: ADME, organism-based, Canis lupus familiaris
value_type: Tmax

• Cc1c(-c2ccc(C(N)=O)c3[nH]c4cc(C(C)(C)O)ccc4c23)cccc1-n1cnc2ccccc2c1=O = 1.6 h

---

- experimental_details: AUC in mouse plasma at 5 mg/kg, administered through oral gavage after 0.25 to 24 hrs by LC/MS/MS analysis
- Type: ADME, organism-based
- Parameters: time 0.25-24 hr, dose 5 mg/kg, route oral
value_type: AUC (µM·h)

* Cc1c(-c2ccc(C(N)=O)c3[nH]c4cc(C(C)(C)O)ccc4c23)cccc1-n1cnc2ccccc2c1=O | 30.8

---

- experimental_details: Volume of distribution in steady state in cynomolgus monkey at 2 mg/kg, iv through bolus administration after 0.167 to 48 hrs by LC/MS/MS analysis
- Type: ADME, organism-based, Macaca fascicularis
- condition_description: in vivo, read-out: Vdss
value_type: Vd

• Cc1c(-c2ccc(C(N)=O)c3[nH]c4cc(C(C)(C)O)ccc4c23)cccc1-n1cnc2ccccc2c1=O = 1.6 L/kg

---

- experimental_details: Solubility of the compound in fed state simulated intestinal fluid
- Assay type: physicochemical
value_type: solubility (µg/mL)

* Cc1c(-c2ccc(C(N)=O)c3[nH]c4cc(C(C)(C)O)ccc4c23)cccc1-n1cnc2ccccc2c1=O | 60

---

- experimental_details: Volume of distribution in steady state in Sprague-Dawley rat at 2 mg/kg, iv through bolus administration by LC/MS/MS analysis
- Assay type: ADME, organism-based
- condition_description: in vivo, read-out: Vdss
value_type: Vd

• Cc1c(-c2ccc(C(N)=O)c3[nH]c4cc(C(C)(C)O)ccc4c23)cccc1-n1cnc2ccccc2c1=O = 2.6 L/kg

---

Reported IC50 by item:
- system_name: Tyrosine-protein kinase BTK (Homo sapiens)
- Sequence (Q06187 whole entry): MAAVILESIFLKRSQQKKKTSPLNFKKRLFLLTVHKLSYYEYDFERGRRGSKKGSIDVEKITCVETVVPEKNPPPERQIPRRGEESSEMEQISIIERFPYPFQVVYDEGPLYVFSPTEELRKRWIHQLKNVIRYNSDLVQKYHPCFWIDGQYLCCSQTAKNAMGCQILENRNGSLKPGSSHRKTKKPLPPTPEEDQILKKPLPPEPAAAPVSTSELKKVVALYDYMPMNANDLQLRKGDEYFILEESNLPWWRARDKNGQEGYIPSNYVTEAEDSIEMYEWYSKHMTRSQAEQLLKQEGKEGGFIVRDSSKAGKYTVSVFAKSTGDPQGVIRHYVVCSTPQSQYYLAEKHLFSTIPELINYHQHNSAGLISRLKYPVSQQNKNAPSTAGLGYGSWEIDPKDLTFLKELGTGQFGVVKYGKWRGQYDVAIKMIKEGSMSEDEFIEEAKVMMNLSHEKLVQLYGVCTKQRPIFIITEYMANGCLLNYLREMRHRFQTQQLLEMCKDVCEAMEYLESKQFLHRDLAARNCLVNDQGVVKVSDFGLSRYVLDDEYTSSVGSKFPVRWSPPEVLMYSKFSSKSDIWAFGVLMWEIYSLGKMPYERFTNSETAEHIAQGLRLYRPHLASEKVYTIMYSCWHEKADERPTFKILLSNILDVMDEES
- experimental_details: Inhibition of His-tagged full length human recombinant BTK expressed in baculovirus using fluoresceinated peptide substrate after 60 mins by fluorescent electrophoretic separation
value_type: IC50 (nM)

• Cc1c(-c2ccc(C(N)=O)c3[nH]c4cc(C(=O)N5CCN(C)CC5)ccc4c23)cccc1N1Cc2ccccc2C1=O = 5
• Cc1c(NC(=O)c2ccc(F)cc2)cccc1-c1ccc(C(N)=O)c2[nH]c3cc(C(=O)N4CCN(C)CC4)ccc3c12 = 5
• Cc1c(-c2ccc(C(N)=O)c3[nH]c4cc(C(C)(C)O)ccc4c23)cccc1-n1cnc2cccc(F)c2c1=O = 5
• Cc1c(-c2ccc(C(N)=O)c3[nH]c4cc(CO)ccc4c23)cccc1-n1cnc2ccccc2c1=O = 3
• Cc1c(-c2ccc(C(N)=O)c3[nH]c4cc(C(C)(C)O)ccc4c23)cccc1-n1cnc2ccc(F)cc2c1=O = 7
• Cc1c(-c2ccc(C(N)=O)c3[nH]c4cc(C(C)(C)O)ccc4c23)cccc1-n1cnc2c(F)cccc2c1=O = 2
• Cc1c(-c2ccc(C(N)=O)c3[nH]c4cc(C(C)(C)O)ccc4c23)cccc1N1Cc2ccc(F)cc2C1=O = 2
• Cc1c(-c2ccc(C(N)=O)c3[nH]c4cc(C(C)(C)O)ccc4c23)cccc1-n1ccc2ccccc2c1=O = 5
